These entries and their values trace back to patent US20230287082A1.

# study.system: human NKp30 (human) (UniProt O14931)
# Sequence (O14931 19-135 limits assumed): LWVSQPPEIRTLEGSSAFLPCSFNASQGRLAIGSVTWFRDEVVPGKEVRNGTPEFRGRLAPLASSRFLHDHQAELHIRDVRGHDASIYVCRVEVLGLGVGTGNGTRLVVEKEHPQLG
# assay.text: BLI, ratio to ΔB7-H6_wt
Catalogue of x-fold KD improvement readings, one per entry.
Your answer should be a plain number; it is taken to be in fold.

ΔB7-H6_S3#22-SEED-PGLALA (bispecific antibody, part only; not given: SEED Fc chains and hu225 Fab, part only) chain, part: DLKVEMMAGGTQITPLNDNVTIFCNIFYSQPLNITEMGITWFWKSLTFDKEVKVFEFWGDHQEAFRPGAIVSPWRLKSGDASLRLPGIQLEEAGEYRCEVVVTPYKAQGTVQLEVVASPAS; 4.3

So, ΔB7-H6_S3#16-SEED-PGLALA (bispecific antibody, part only; not given: SEED Fc chains and hu225 Fab, part only) chain, part: DLKVEMMAGGTQITPLNDNVTIFCNIFYSQPLNITLMGITWFWKSLTFDKEVKVFEFYGDHQEAFRPGAIVSPWRLKSGDASLRLPGIQLEEAGEYRCEVVVTPYKAQGTVQLEVVASPAS ? Its x-fold KD improvement was 14.3
